Target: EGFR wildtype (WT) (Homo sapiens)
Sequence (P00533 25-1210): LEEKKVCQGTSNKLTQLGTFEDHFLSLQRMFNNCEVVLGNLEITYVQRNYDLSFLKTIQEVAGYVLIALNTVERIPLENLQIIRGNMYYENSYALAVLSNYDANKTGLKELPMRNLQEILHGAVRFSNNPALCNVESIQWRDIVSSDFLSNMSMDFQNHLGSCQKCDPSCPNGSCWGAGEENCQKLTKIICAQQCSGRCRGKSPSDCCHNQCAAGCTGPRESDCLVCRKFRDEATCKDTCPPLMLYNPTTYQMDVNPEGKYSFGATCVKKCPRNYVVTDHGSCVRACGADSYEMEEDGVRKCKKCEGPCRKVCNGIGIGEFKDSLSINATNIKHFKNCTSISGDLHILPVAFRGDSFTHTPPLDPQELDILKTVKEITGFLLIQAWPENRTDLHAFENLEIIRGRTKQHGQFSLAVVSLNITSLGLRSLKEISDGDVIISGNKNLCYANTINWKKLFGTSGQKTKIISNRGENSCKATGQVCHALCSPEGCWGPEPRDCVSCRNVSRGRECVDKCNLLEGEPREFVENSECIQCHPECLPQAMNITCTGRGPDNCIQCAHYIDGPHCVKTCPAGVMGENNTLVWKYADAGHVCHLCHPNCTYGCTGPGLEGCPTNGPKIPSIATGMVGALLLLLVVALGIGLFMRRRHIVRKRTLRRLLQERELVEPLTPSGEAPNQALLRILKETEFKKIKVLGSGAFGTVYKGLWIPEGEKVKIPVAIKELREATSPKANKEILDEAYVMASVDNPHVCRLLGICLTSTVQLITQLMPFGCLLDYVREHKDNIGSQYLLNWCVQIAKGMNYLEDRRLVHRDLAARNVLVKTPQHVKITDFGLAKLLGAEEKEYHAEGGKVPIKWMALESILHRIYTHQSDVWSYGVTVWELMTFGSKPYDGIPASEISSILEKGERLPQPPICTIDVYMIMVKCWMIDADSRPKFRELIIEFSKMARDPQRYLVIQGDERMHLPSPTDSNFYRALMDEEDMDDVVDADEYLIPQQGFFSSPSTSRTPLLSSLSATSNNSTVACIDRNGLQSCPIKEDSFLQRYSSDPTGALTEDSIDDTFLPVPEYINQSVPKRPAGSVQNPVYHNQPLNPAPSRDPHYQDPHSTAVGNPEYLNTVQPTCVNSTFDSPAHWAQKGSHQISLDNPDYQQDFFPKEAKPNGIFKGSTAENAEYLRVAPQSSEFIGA
Experiment: Biochemical EGFR kinase inhibition assay (Lance Ultra TR-FRET), wildtype
Settings: ATP at Km; read-out: IC50 WT (nM), Km ATP
RESULT TYPE: IC50 (nM)

# COMPOUND, UNITS TEXT, IC50
data = [
    ("CC1(CO)CCN(c2cc(Nc3ccnc(-c4cnn(S(=O)(=O)C5CC5)c4)n3)ncc2C#Cc2cnc(CN3CCOCC3)s2)CC1 [Example 192]", "nM", 6.1),
    ("CC1(CO)CCN(c2cc(Nc3ccnc(-c4cnn(S(=O)(=O)C5CC5)c4)n3)ncc2C#CC2(O)CCCC2)CC1 [Example 177]", "nM", 17.7),
]

(I) CC(C)Nc1cc(Nc2ccnc(-c3cnn(S(=O)(=O)C4CC4)c3)n2)ncc1C#CCCCC(=O)N1CCOCC1 [Example 208]
(II) CC1(CO)CCN(c2cc(Nc3ccnc(-c4cnn(S(=O)(=O)C5CC5)c4)n3)ncc2C#Cc2csc(CN3CCOCC3)n2)CC1 [Example 189]
Hi there! Just curious which has the higher IC50 between I and II . Kindly state the label of the option you pick.
I
(I: 107 nM, II: 8.4 nM)

(I) Cc1nn(S(=O)(=O)N(C)C)cc1-c1nccc(Nc2cc(N3CCC(C)(CO)CC3)c(C#Cc3cnn(C(F)(F)F)c3)cn2)n1 [Example 272]
(II) CC1(CO)CCN(c2cc(Nc3ccnc(-c4cnn(S(=O)(=O)C5CC5)c4)n3)ncc2C#CC2CC(C(C)(C)O)C2)CC1 (stereo not drawn) [Example 266]
Hi there! Just curious which has the higher IC50 between I and II . Kindly state the label of the option you pick.
I
(I: 108 nM, II: 7.2 nM)

* * *

Molecular target: EGFR Del19/T790M/C797S (Homo sapiens, UniProt P00533, C797S/DEL746-750/T790M)
Sequence (P00533 with tags, fused parts or gaps DEL746-750/T790M/C797S): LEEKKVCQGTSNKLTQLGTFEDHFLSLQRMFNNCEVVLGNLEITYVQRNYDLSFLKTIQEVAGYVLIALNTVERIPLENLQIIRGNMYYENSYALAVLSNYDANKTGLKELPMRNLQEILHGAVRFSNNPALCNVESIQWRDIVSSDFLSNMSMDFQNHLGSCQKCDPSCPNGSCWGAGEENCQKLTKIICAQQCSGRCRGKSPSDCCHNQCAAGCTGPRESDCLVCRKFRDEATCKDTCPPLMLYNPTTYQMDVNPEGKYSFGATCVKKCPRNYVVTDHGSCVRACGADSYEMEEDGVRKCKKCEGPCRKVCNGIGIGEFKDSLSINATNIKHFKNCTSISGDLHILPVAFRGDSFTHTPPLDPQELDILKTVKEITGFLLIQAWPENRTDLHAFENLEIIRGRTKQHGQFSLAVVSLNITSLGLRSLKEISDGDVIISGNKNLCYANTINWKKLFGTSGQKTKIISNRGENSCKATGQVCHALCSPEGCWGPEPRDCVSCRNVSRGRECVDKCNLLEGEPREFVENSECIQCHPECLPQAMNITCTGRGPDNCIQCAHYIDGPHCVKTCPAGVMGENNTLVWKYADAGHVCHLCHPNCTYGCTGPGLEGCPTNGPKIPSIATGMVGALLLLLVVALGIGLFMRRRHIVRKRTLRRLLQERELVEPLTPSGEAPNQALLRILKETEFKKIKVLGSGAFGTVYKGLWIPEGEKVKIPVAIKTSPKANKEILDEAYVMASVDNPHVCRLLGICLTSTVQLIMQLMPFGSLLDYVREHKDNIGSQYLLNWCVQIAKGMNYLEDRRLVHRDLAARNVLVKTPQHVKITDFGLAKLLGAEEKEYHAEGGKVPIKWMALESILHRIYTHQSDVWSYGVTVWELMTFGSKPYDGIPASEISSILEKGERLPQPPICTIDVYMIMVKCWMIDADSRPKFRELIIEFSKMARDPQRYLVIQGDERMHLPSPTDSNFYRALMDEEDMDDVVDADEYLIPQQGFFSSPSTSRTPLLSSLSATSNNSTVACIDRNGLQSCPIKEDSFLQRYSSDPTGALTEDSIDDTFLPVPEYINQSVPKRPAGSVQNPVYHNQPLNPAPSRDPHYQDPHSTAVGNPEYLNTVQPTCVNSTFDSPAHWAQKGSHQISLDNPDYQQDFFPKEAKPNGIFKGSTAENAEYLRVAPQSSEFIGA
Test: Biochemical EGFR kinase inhibition assay (Lance Ultra TR-FRET), triple mutant del19/T790M/C797S
Conditions: IC50 Del19/T790M/C797S (nM), 100 μM ATP
Method: Biochemical EGFR kinase assays were conducted using Lance Ultra time-resolved fluorescence resonance energy transfer (TR-FRET) technology from Perkin-Elmer. […] Each kinase reactions were incubated at room temperature for 1 hour and then stopped by the addition of 4 μL of stop solution (10 mM EDTA). […] After 60 minutes incubation at room temperature the LANCE signal was measured on an EnVision Multilabel Reader (Perkin-Elmer). […]
RESULT TYPE: IC50 (nM)

As a guide, the following entries are already answered.
# MOLECULE, IC50 / nM
rows = [
    ("CC1(CO)CCN(c2cc(Nc3ccnc(-c4ccc(F)nc4)n3)ncc2C#Cc2cnn(C(F)(F)F)c2)CC1", 129),
    ("O=S(=O)(C1CC1)n1cc(-c2nccc(Nc3cc(N4CCCC(O)C4)c(C#Cc4cnn(CC(F)(F)F)c4)cn3)n2)cn1 (centres unmarked)", 1.9),
    ("Cn1cc(C#Cc2cnc(Nc3ccnc(-c4cnn(S(=O)(=O)C5CC5)c4)n3)cc2N2CCC3(CCNC3)CC2)cn1", 0.1),
    ("CC1(O)CCN(c2cc(Nc3ccnc(-c4cnn(S(=O)(=O)C5CC5)c4)n3)ncc2C#CC2(C)CC2)CC1", 1.7),
    ("CC(=O)C1CCN(c2cc(Nc3ccnc(-c4cnn(S(=O)(=O)C5CC5)c4)n3)ncc2C#Cc2cnn(C(F)(F)F)c2)CC1", 8),
    ("CC1(CO)CCN(c2cc(Nc3ccnc(-c4cnn(S(=O)(=O)C5CC5)c4)n3)ncc2C#CC2CCN(S(C)(=O)=O)C2)CC1 (centres unmarked)", 0.4),
    ("CC1(CO)CCN(c2cc(Nc3ccnc(-c4cnn(S(=O)(=O)C5CC5)c4)n3)ncc2C#Cc2ccccn2)CC1", 0.5),
    ("CN(C)C(C)(C)CNC1CCN(c2cc(Nc3ccnc(-c4cnn(S(=O)(=O)C5CC5)c4)n3)ncc2C#Cc2cnn(C)c2)CC1", 0.4),
]

(a) O=C(c1ccc(C#Cc2cnc(Nc3ccnc(-c4cnn(S(=O)(=O)C5CC5)c4)n3)cc2NC[C@H]2CC[C@H](CO)CC2)cc1)N1CCC(O)CC1
(b) CC1(C#Cc2cnc(Nc3ccnc(-c4cnn(S(=O)(=O)C5CC5)c4)n3)cc2N[C@H]2CC[C@@H](O)CC2)CC1
Hi there! Just curious which has the higher IC50 between a and b . Kindly state the label of the option you pick.
a

(1) CC(C)Nc1cc(Nc2ccnc(-c3cnn(S(=O)(=O)C4CC4)c3)n2)ncc1C#Cc1cnn(C)c1
(2) CN1CCN(Cc2ccc(C#Cc3cnc(Nc4ccnc(-c5cnn(S(=O)(=O)C6CC6)c5)n4)cc3N[C@H]3CC[C@]4(CCC(=O)N4)CC3)cc2)CC1
(3) Cc1cnc(C#Cc2cnc(Nc3ccnc(-c4cnn(S(=O)(=O)C5CC5)c4)n3)cc2N[C@@H]2CCC[C@H](O)C2)cn1
Arrange the 3 molecules by rising IC50, starting with the smallest. Submit the labels in the order that the ranking request calls for.
2, 3, 1
(2: 0.7 nM, 3: 1 nM, 1: 1.6 nM)

(1) Cn1cc(C#Cc2cnc(Nc3ccnc(-c4cnn(S(=O)(=O)C5CC5)c4)n3)cc2N2CCC(NCCF)CC2)cn1
(2) O=S(=O)(C1CC1)n1cc(-c2nccc(Nc3cc(N4CCC(CO)CC4)c(C#Cc4cnn(CCF)c4)cn3)n2)cn1
(3) O=S(=O)(C1CC1)n1cc(-c2nccc(Nc3cc(NC4CCC(O)CC4)c(C#CC4(F)CCOC4)cn3)n2)cn1 (centres unmarked)
Arrange the 3 molecules by rising IC50, starting with the smallest. Submit the labels in the order that the ranking request calls for.
3, 1, 2

(1) Cn1cc(C#Cc2cnc(Nc3ccnc(-c4cnn(S(=O)(=O)C5CC5)c4)n3)cc2N[C@H]2CC[C@@H](O)CC2)c(C(F)(F)F)n1
(2) O=S(=O)(C1CC1)n1cc(-c2nccc(Nc3cc(N4CC[C@@H](O)C4)c(C#Cc4cnn(CCF)c4)cn3)n2)cn1
(3) CN(C)CC1(C)CCN(c2cc(Nc3ccnc(-c4cnn(S(=O)(=O)C5CC5)c4)n3)ncc2C#Cc2cnn(C3CC3)c2)CC1
(4) CN(C)CCNC1CCN(c2cc(Nc3ccnc(-c4cnn(S(=O)(=O)C5CC5)c4)n3)ncc2C#Cc2cnn(C(F)(F)F)c2)CC1
Arrange the 4 molecules by rising IC50, starting with the smallest. Submit the labels in the order that the ranking request calls for.
3, 4, 2, 1

* * *

Target: EGFR wildtype (WT) (Homo sapiens)
Test: Biochemical EGFR kinase inhibition assay (Lance Ultra TR-FRET), wildtype
Conditions: ATP at Km; read-out: IC50 WT (nM), Km ATP
RESULT TYPE: IC50 (nM)

# COMPOUND, RESULT TYPE, UNITS TEXT, ASSAY RESULT
rows = [
    ("CN(C)CC1(C)CCN(c2cc(Nc3ccnc(-c4cnn(S(=O)(=O)C5CC5)c4)n3)ncc2C#Cc2cnn(CC(F)F)c2)CC1", "IC50", "nM", 5),
]

(P) O=S(=O)(C1CC1)n1cc(-c2nccc(Nc3cc(N[C@H]4CC[C@@H](CO)CC4)c(C#Cc4cnn(C(F)F)c4)cn3)n2)cn1
(Q) CC1(CO)CCN(c2cc(Nc3ccnc(-c4cnn(S(=O)(=O)C5CC5)c4)n3)ncc2C#Cc2cnn(CC3CCCOC3)c2)CC1 (stereo not drawn)
Among P and Q , whose measured IC50 is the smaller figure? Kindly state the label of the option you pick.
Q

* * *

Target: EGFR L858R/C797S (Homo sapiens, UniProt P00533, C797S/L858R)
Sequence (P00533 25-1210 C797S/L858R): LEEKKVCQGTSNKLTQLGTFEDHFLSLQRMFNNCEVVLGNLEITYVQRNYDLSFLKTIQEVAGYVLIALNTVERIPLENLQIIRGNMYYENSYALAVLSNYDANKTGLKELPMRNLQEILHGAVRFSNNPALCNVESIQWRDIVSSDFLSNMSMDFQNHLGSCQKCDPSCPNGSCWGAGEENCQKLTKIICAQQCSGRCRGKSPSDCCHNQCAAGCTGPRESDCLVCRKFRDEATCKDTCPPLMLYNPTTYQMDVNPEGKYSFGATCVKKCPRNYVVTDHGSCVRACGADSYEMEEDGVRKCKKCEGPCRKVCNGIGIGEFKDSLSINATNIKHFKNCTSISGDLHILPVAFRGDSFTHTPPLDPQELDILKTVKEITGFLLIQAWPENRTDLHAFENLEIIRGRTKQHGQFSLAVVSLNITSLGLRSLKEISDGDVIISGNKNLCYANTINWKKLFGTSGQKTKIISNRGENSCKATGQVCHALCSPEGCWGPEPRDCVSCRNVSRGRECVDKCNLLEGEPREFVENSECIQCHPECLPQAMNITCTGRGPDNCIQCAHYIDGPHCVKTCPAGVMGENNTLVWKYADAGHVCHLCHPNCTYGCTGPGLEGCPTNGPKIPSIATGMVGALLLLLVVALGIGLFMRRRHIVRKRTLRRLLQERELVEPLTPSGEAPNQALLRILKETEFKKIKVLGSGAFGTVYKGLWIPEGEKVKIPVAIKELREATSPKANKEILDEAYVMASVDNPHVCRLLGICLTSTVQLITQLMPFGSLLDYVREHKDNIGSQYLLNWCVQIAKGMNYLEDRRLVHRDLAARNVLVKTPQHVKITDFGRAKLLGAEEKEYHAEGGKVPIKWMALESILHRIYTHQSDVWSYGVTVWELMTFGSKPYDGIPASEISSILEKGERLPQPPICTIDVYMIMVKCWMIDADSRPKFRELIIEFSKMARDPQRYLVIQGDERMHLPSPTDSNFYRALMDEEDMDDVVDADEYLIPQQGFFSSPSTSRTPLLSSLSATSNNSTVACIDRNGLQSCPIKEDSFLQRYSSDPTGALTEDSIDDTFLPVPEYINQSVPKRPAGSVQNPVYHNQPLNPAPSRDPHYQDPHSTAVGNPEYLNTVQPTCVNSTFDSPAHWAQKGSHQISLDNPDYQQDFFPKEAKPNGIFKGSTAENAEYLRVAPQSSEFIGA
Test: Biochemical EGFR kinase inhibition assay (Lance Ultra TR-FRET), double mutant L858R/C797S
Details: IC50 L858R/C797S (nM), 100 μM ATP
RESULT TYPE: IC50 (nM)

As a guide, the following entries are already answered.
# COMPOUND, SUBJECT OF TEST, UNITS TEXT, IC50
measured = [
    ("CC1(CO)CCN(c2cc(Nc3ccnc(-c4cnn(S(=O)(=O)C5CC5)c4)n3)ncc2C#Cc2ccccc2F)CC1", "EGFR L858R/C797S (Homo sapiens, UniProt P00533, C797S/L858R)", "nM", 143),
    ("Cn1cc(C#Cc2cnc(Nc3ccnc(-c4cnn(S(=O)(=O)C5CC5)c4)n3)cc2N2CCC(F)(C(F)(F)F)CC2)cn1", "EGFR L858R/C797S (Homo sapiens, UniProt P00533, C797S/L858R)", "nM", 350),
]

(P) CC1(CO)CCN(c2cc(Nc3ccnc(-c4cnn(S(=O)(=O)C5CC5)c4)n3)ncc2C#CC2CCO[C@H]2C(F)(F)F)CC1 (stereo partly shown)
(Q) Cn1cc(C#Cc2cnc(Nc3ccnc(-c4cnn(S(=O)(=O)C5CC5)c4)n3)cc2N2CCC(NCCF)CC2)cn1
Hi there! Just curious which has the higher IC50 between P and Q . Kindly state the label of the option you pick.
P
(P: 117 nM, Q: 23.8 nM)

(A) CN1CCN(Cc2ccc(C#Cc3cnc(Nc4ccnc(-c5cnn(S(=O)(=O)C6CC6)c5)n4)cc3N[C@H]3CC[C@]4(CCC(=O)N4)CC3)cc2)CC1
(B) CN1CCC2(CC1)CCN(c1cc(Nc3ccnc(-c4cnn(S(=O)(=O)C5CC5)c4)n3)ncc1C#Cc1cnn(C)c1)CC2
Among A and B , whose measured IC50 is the smaller figure? Kindly state the label of the option you pick.
A
(A: 3.2 nM, B: 18.4 nM)
